Below, each entry is listed alongside its reported half-life.
- Experiment summary: Metabolic stability in rat liver microsomes assessed as half life
- Type: ADME, Microsome
All answers are understood in min, so give the number only.

Check out these entries, answers already filled in.
Molecule: CN(C)c1nc(NCc2ccc(NC(=O)c3ccc(F)cc3)cc2)c2ccc(C=O)cc2n1
half-life / min: 3
//
Molecule: Cc1ccc2c(NCc3ccc(NC(=O)c4ccc(F)cc4)cc3)nc(N3CCN[C@H](C)C3)nc2c1
half-life / min: 4
//
Molecule: Cc1ccc2c(NCc3ccc(NC(=O)c4ccc(F)cc4)cc3)nc(N3CCNC(C)(C)C3)nc2c1
half-life / min: 3

(Q) Request the reported half-life associated with CNc1nc(NCc2ccc(NC(=O)c3ccc(Cl)nc3)cc2)c2ccc(C)cc2n1
(A) 8

(Q) Field request: half-life | item: CNc1nc(NCc2ccc(NC(=O)c3ccc(Cl)nc3)cc2)c2cc(C)ccc2n1
(A) 13

(Q) Look up half-life: CNc1nc(NCc2ccc(NC(=O)c3ccc(F)cc3)cc2)c2cc(C)ccc2n1
(A) 6

(Q) // half-life lookup, key: Cc1ccc2c(NCc3ccc(NC(=O)c4ccc(F)cc4)cc3)nc(N(C)C)nc2c1
(A) 12

(Q) Param item = CNc1nc(NCc2ccc(NC(=O)c3cccc(Cl)c3)cc2)c2ccccc2n1 ; retrieve measured half-life.
(A) 15

* * *

Entries and their measured log10 of half-life follow.
- Experiment summary: Metabolic stability in rat liver microsomes assessed as half life
- Type: ADME, Microsome
Values are log10 of half-life in min.

Solved entries:
Cpd smiles: Cc1ccc2c(NCc3ccc(NC(=O)c4ccc(F)cc4)cc3)nc(N3CCCC3)nc2c1
Result: 0.30
--
Cpd smiles: Cc1ccc2c(NCc3ccc(NC(=O)c4ccc(F)cc4)cc3)nc(N3CCC3)nc2c1
Result: 0.85
--
Cpd smiles: Cc1ccc2c(NCc3ccc(NC(=O)c4ccc(F)cc4)cc3)nc(N3CCOCC3)nc2c1
Result: 0.78
--
Cpd smiles: CNc1nc(NCc2ccc(NC(=O)c3ccc(Cl)cc3)cc2)c2cccc(C)c2n1
Result: 1.04
--
Cpd smiles: C=Cc1ccc2c(NCc3ccc(NC(=O)c4ccc(F)cc4)cc3)nc(N(C)C)nc2c1
Result: 0.78

(Q) Need log10 of half-life, item CNc1nc(NCc2ccc(NC(=O)c3ccc(Cl)nc3)cc2)c2cccc(C)c2n1
(A) 1.34

(Q) Could you tell me which log10 of half-life is on file for CCc1ccc2c(NCc3ccc(NC(=O)c4ccc(F)cc4)cc3)nc(N(C)C)nc2c1 ?
(A) 0.78

(Q) Which log10 of half-life reading was recorded for the compound CNc1nc(NCc2ccc(NC(=O)c3ccc(C(F)(F)F)cc3)cc2)c2ccccc2n1 ?
(A) 1.48

(Q) Which log10 of half-life reading was recorded for the compound CN(C)c1nc(NCc2ccc(NC(=O)c3ccc(F)cc3)cc2)c2ccc(CO)cc2n1 ?
(A) 1.34

* * *

As shown below, each of these compounds has a reported half-life value.
- Experiment summary: Metabolic stability in rat liver microsomes assessed as half life
- Format: ADME, Microsome
Please respond with the number in min and leave the unit unwritten.

Please review the entries below; each comes with its answer.
Cpd smiles: CNc1nc(NCc2ccc(NC(=O)c3ccc(Cl)nc3)cc2)c2ccccc2n1
Display unit: min
half-life: 17

Cpd smiles: CNc1nc(NCc2ccc(NC(=O)c3ccc(C#N)cc3)cc2)c2ccccc2n1
Display unit: min
half-life: 10

Cpd smiles: CN(C)Cc1ccc2c(NCc3ccc(NC(=O)c4ccc(F)cc4)cc3)nc(N(C)C)nc2c1
Display unit: min
half-life: 3

Cpd smiles: CNc1nc(NCc2ccc(NC(=O)c3ccc(-c4ccccc4)cc3)cc2)c2ccccc2n1
Display unit: min
half-life: 16

Cpd smiles: CCCNc1nc(NCc2ccc(NC(=O)c3ccc(F)cc3)cc2)c2ccc(C)cc2n1
Display unit: min
half-life: 6

Cpd smiles: CNc1nc(NCc2ccc(NC(=O)c3ccc(F)cc3)cc2)c2cccc(C)c2n1
Display unit: min
half-life: 10

Cpd smiles: Cc1ccc2c(NCc3ccc(NC(=O)c4ccc(F)cc4)cc3)nc(N3CCCCC3)nc2c1
Display unit: min
half-life: 3

Cpd smiles: CC(=O)c1ccc2c(NCc3ccc(NC(=O)c4ccc(F)cc4)cc3)nc(N(C)C)nc2c1
Display unit: min
half-life: 2

Moving on to another compound below.
(Q) Query: half-life; subject: CNc1nc(NCc2ccc(NC(=O)c3ccc(C)cc3)cc2)c2ccccc2n1
(A) 16
